# TEST TARGET: AChE (Electrophorus electricus, UniProt O42275)
# Sequence (O42275 24-633): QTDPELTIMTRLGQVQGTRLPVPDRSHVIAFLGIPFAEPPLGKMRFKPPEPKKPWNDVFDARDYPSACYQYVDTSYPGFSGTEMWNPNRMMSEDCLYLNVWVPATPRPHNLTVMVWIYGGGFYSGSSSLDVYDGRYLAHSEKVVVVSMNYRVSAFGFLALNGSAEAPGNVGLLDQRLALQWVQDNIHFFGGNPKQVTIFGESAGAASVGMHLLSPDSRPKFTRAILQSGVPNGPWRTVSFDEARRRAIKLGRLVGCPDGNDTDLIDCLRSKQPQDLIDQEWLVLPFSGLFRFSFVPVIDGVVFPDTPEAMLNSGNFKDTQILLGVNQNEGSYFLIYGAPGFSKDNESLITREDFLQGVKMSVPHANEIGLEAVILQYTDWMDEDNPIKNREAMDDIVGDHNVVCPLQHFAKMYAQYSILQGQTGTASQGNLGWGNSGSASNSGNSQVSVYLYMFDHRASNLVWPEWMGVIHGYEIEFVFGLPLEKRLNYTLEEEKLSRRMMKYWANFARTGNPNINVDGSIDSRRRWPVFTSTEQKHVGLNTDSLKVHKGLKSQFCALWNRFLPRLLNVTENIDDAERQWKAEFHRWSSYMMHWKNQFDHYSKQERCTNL
# EXPERIMENT SUMMARY: AChE inhibition, in vitro modified Ellman's spectrophotometric method
# Assay type: biochemical
# CONDITION DETAILS: read-out: AChE % Inhibition
MEASURED PROPERTY: inhibition at 1000 µM (%)
Only the number, expressed in %, is required.

Below: 5 compounds and their reported inhibition at 1000 µM.
| COMPOUND | UNIT INFO | inhibition at 1000 µM |
| --- | --- | --- |
| CC(C)Nc1nnc(SCC(=O)c2ccc3c(c2)NC(=O)CS3)s1 [Compound 3c] | % | 70.6 |
| O=C1CSc2ccc(C(=O)CSc3nnc(NC4CCCCC4)s3)cc2N1 [Compound 3f] | % | 65.4 |
| O=C1CSc2ccc(C(=O)CSc3nnc(Nc4ccccc4)s3)cc2N1 [Compound 3g] | % | 80.1 |
| O=C1CSc2ccc(C(=O)CSc3nnc(Nc4ccc(Cl)cc4)s3)cc2N1 [Compound 3j] | % | 96.5 |
| COc1ccc(Nc2nnc(SCC(=O)c3ccc4c(c3)NC(=O)CS4)s2)cc1 [Compound 3i] | % | 93.2 |

For the compound CCCCNc1nnc(SCC(=O)c2ccc3c(c2)NC(=O)CS3)s1 [Compound 3d] , report inhibition at 1000 µM. 72.7

* * *

# TEST TARGET: AChE (Electrophorus electricus, UniProt O42275)
# EXPERIMENT SUMMARY: AChE inhibition, in vitro modified Ellman's spectrophotometric method
# Type: biochemical
# CONDITION DETAILS: read-out: AChE % Inhibition
MEASURED PROPERTY: inhibition at 1000 µM (%)
Write the answer as a number in %, unit excluded.

Reference set, count: 3
| SMILES STR | UNIT INFO | inhibition at 1000 µM |
| --- | --- | --- |
| CCNc1nnc(SCC(=O)c2ccc3c(c2)NC(=O)CS3)s1 | % | 78.2 |
| CCCNc1nnc(SCC(=O)c2ccc3c(c2)NC(=O)CS3)s1 | % | 75.4 |
| CC(C)CNc1nnc(SCC(=O)c2ccc3c(c2)NC(=O)CS3)s1 | % | 69.9 |

Please report inhibition at 1000 µM for the following compound: Cc1ccc(Nc2nnc(SCC(=O)c3ccc4c(c3)NC(=O)CS4)s2)cc1 82.2
